Origin of the recorded values: paper PMC11758220

target: STARD3 (Homo sapiens); construct: STARD3(216-444); made in house; host or cells: E. coli BL21(DE3); test: Differential scanning fluorimetry (DSF), STARD3; assay type: binding; settings: apparent Kd; mean of three experiments run in technical duplicates; read-out: STARD3 Kd,app (DSF)
Sequence (Q14849 216-444): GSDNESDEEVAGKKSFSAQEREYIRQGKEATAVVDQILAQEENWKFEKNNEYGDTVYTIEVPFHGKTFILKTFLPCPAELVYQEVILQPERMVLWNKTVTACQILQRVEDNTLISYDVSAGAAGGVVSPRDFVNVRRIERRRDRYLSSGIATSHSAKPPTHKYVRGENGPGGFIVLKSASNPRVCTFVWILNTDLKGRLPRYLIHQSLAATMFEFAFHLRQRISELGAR
pKd: −log10 of the molar value.
pKd: recorded values

query: Report its pKd with STARD3 (Homo sapiens) as the test system: CC12CCC3CC1CCC21C(=Nc2ccc(N4CCOCC4)cc21)O3 (single isomer, unassigned; (-)) [(−)-19a]
result: < 4.00

query: Report its pKd with STARD3 (Homo sapiens) as the test system: CC12CCC3CC1CCC21C(=Nc2ccc(N4CCOCC4)cc21)O3 (single isomer, unassigned; (+)) [(+)-19a]
result: < 4.00

query: Report its pKd with STARD3 (Homo sapiens) as the test system: CC(C)Oc1ccc(C(=O)Nc2nc3c(s2)CN(C(=O)OC(C)(C)C)CC3)cc1 [Autogramin-2, reference compound]
result: < 4.52

###

ΔTm at 10 µM: recorded values
Target: STARD4 (Homo sapiens, UniProt Q96DR4, C75S)
Construct: STARD4(2-205; C75S); made in house; host or cells: E. coli BL21(DE3)
Sequence (Q96DR4 2-205 C75S): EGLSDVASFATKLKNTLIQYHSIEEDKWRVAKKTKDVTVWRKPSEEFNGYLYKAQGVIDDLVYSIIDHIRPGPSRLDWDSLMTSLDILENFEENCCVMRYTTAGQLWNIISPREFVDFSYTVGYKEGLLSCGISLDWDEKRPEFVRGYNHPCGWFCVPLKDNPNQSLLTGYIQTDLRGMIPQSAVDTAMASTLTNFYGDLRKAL
Assay: Differential scanning fluorimetry (DSF), STARD4
Format: binding
Conditions: single dose, Dose = 10 µM
Source text: Protein expression constructs Human ASTER domains of Aster-A(359-547), -B(364-552) and -C(318-504) were subcloned into a pGEX-6p-2rbs vector, thus introducing the cloning artifact ‘GPLGS’.3 The pGEX-6P-1-GST-OSBP(377- […] a gift from James H. Hurley (University of California).4 The pHIS_2His6_Thrombin_STARD4(2-205;C75S) plasmid was a gift from Young Jun Im (Chonnam National University).5 STARD5A was a gift from Nicola Burgess-Brown (Addgene plasmid #42392; http://n2t.net/addgene:42392; […]
// note: answer is a bare numeric in °C

Please review the following examples before continuing.
query: Consider the molecule Cc1cc(C)c2c(c1)NC(=O)[C@@]1(C)CC[C@@H](O)C[C@H]1CCC2=O [Compound 11g] . State its measured ΔTm at 10 µM.
result: 0.464

query: Consider the molecule C[C@]12CC[C@@H](O)C[C@H]1CCC(=O)c1cc(C(F)(F)F)ccc1NC2=O [Compound 11e] . State its measured ΔTm at 10 µM.
result: -0.0316

query: Consider the molecule "C[C@]12CC[C@@H](O)C[C@H]1CCC[C@]21Nc2ccccc2-n2cccc21" . State its measured ΔTm at 10 µM.
result: 0.6

query: Consider the molecule CC12CCC3CC1CCC21C(=Nc2ccc(NCc4ccccc4)cc21)O3 (stereo not drawn) [Compound 19b] . State its measured ΔTm at 10 µM.
result: 3.7

query: Consider the molecule Cc1ccc2c(c1)C(=O)CC[C@@H]1C[C@H](O)CC[C@]1(C)C(=O)N2 [Compound 11c] . State its measured ΔTm at 10 µM.
result: -0.0446

query: Consider the molecule C[C@]12CC[C@@H]3C[C@H]1CC[C@@]21C(=Nc2ccc(Br)cc21)O3 (racemic) [Compound 15b] . State its measured ΔTm at 10 µM.
result: 1.5

query: Consider the molecule "Cc1ccc2c(c1)C(=O)[C@]1(CC[C@@H]3C[C@H](O)CC[C@@]31C)N2" . State its measured ΔTm at 10 µM.
result: 1.1

query: Consider the molecule "C[C@]12CC[C@@H](O)C[C@H]1CCc1c2[nH]c2ncccc12" . State its measured ΔTm at 10 µM.
result: -0.021

query: Consider the molecule COc1ccc2c(c1)[C@]1(O)CC[C@@H]3C[C@H](O)CC[C@]3(C)C1=N2 [Compound 14b] . State its measured ΔTm at 10 µM.
result: -0.1

query: Consider the molecule Cc1ccc2c(c1)[C@]1(O)CC[C@@H]3C[C@H](O)CC[C@]3(C)C1=N2 [Compound 14a] . State its measured ΔTm at 10 µM.
result: 0.8

Others:
query: Consider the molecule "C[C@]12CC[C@@H](O)C[C@H]1CCc1[nH]c(-c3ccccc3)nc12" . State its measured ΔTm at 10 µM.
result: -0.0502

query: Consider the molecule "C[C@]12CC[C@@H](O)C[C@H]1CCC[C@]21NC(=O)c2ccccc2N1" . State its measured ΔTm at 10 µM.
result: -0.124

###

Target: ORP2 (Homo sapiens)
Construct: ORP2(49-480); host or cells: E. coli BL21(DE3)
Sequence (Q9H1P3 49-480): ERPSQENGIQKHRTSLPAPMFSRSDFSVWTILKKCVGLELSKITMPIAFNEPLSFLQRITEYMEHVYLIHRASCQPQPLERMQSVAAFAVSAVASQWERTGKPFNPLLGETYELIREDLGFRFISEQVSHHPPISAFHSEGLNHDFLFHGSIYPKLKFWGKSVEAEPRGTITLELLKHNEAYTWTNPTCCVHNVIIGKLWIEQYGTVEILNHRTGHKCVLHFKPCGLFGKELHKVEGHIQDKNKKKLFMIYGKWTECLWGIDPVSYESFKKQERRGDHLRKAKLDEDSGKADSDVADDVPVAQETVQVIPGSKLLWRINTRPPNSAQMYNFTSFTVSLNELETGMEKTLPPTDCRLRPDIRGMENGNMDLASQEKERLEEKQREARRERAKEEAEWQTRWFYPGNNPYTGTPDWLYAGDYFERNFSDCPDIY
Experiment: Fluorescence polarisation (FP) competition with NBD-cholesterol, ORP2
Format: binding
Settings: single dose, Dose = 10 µM
READOUT KIND: inhibition at 10 µM (%)
// note: answer is a bare numeric in %

Please review the following examples before continuing.
query: Consider the molecule C[C@]12CC[C@@H](O)C[C@H]1CCc1nc3ccccc3nc12 [Compound 7a] . State its measured inhibition at 10 µM.
result: 55

query: Consider the molecule Cc1ccc2c(c1)C(=O)CC[C@@H]1C[C@H](O)CC[C@]1(C)C(=O)N2 [Compound 11c] . State its measured inhibition at 10 µM.
result: -1

query: Consider the molecule C[C@]12CC[C@@H]3C[C@H]1CC[C@@]21C(=Nc2ccc(-c4ccccc4)cc21)O3 [Compound 21a] . State its measured inhibition at 10 µM.
result: 58

Attention now turns to another entry.
query: Consider the molecule COc1ccc2c(c1)C(=O)N[C@]1(CCC[C@@H]3C[C@H](O)CC[C@@]31C)N2 [Compound 5c] . State its measured inhibition at 10 µM.
result: 24

###

Molecular target: STARD1 (Homo sapiens, UniProt P49675)
Construct: STARD1(66-284); made in house; host or cells: E. coli BL21(DE3)
Sequence (P49675 66-284): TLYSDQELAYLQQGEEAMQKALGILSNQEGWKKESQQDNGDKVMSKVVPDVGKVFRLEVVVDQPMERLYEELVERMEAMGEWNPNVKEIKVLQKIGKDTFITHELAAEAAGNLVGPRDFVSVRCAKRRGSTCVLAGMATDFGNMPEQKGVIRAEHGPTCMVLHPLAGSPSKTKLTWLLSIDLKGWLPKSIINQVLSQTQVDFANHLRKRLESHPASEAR
Assay: Fluorescence polarisation (FP) competition with NBD-cholesterol, STARD1
Assay type: binding
Conditions: single dose, Dose = 10 µM
READOUT KIND: STARD1 (FP) inhibition (%)
// note: answer is a bare numeric in %

Please review the following examples before continuing.
query: Consider the compound "C[C@]12CC[C@@H](O)C[C@H]1CCC[C@]21NC(=O)c2ccccc2N1" . State its measured STARD1 (FP) inhibition.
result: 1.67

query: Consider the compound C[C@]12CC[C@@H](O)C[C@H]1CCc1c2[nH]c2ccc(I)cc12 [Compound 10h] . State its measured STARD1 (FP) inhibition.
result: 15

query: Consider the compound "C[C@]12CC[C@@H](O)C[C@H]1CCc1c2nc2ccc(Cl)cc2c1-c1ccccc1" . State its measured STARD1 (FP) inhibition.
result: -8

query: Consider the compound "COc1ccc2c(c1)C(=O)N[C@]1(CCC[C@@H]3C[C@H](O)CC[C@@]31C)N2" . State its measured STARD1 (FP) inhibition.
result: -3.33

Attention now turns to another entry.
query: Consider the compound CC12CCC3CC1CCC21C(=Nc2ccc(N4CCOCC4)cc21)O3 (single isomer, unassigned; (-)) [(−)-19a] . State its measured STARD1 (FP) inhibition.
result: 30
